List of inhibition at 10 µM values.
- System: SW480 colon cancer cells
- method_summary: Cell viability assay (CellTiter-Blue) in SW480 colon cancer cells
- Format: cell-based
- condition_summary: Homo sapiens, 96 h, 10 μM, four days, CellTiter-Blue, read-out: percent inhibition at 10 μM (given for EC50 of >10 μM)
property: inhibition at 10 µM (%)

>>> experimental_result("CCNCc1cncc(-c2ccc3[nH]nc(-c4nc5c(-c6cc(F)cc(NCCN(C)C)c6)cncc5[nH]4)c3n2)c1")
4.4
>>> experimental_result("NC1CN(c2cncc(-c3ccc4[nH]nc(-c5nc6c(-c7cccc(F)c7)cncc6[nH]5)c4n3)n2)C1")
3.8
>>> experimental_result("CN1CCN(c2cncc3[nH]c(-c4n[nH]c5ccc(-c6cnccn6)nc45)nc23)CC1")
48.8
>>> experimental_result("c1ncc(-c2ccc3[nH]nc(-c4nc5c(N6CCCCC6)cncc5[nH]4)c3n2)cc1OCCN1CCCC1")
15.8

----------
- Tested on: Wnt activity (Sp5-Luc reporter, human Sp5 promoter with eight TCF/LEF binding sites) in SW480 colon carcinoma cells
- method_summary: Screening assay for Wnt activity: Sp5-Luc reporter gene assay in SW480 cells
- Type: cell-based
- condition_summary: 10 μM, read-out: percent inhibition at 10 μM (given for EC50 of >10 μM)
List of inhibition at 10 µM values.
property: inhibition at 10 µM (%)

>>> experimental_result("O=C(Nc1cncc(-c2ccc3[nH]nc(-c4nc5c(-c6ccncc6)cncc5[nH]4)c3n2)c1)C1CCCCC1")
1.2
>>> experimental_result("c1cc(-c2ccc3[nH]nc(-c4nc5c(-c6ccncc6)cncc5[nH]4)c3n2)ccn1")
9.8
>>> experimental_result("Fc1ccc(-c2cncc3[nH]c(-c4n[nH]c5ccc(-c6cncnc6)nc45)nc23)cc1")
18
>>> experimental_result("Cc1cn(-c2cncc3[nH]c(-c4n[nH]c5ccc(-c6cncc(NC(=O)C7CCC7)c6)nc45)nc23)cn1")
6.7
>>> experimental_result("Fc1cccc(-c2cncc3[nH]c(-c4n[nH]c5ccc(C6CCNCC6)nc45)nc23)c1")
20
>>> experimental_result("CC(C)CC(=O)Nc1cncc(-c2ccc3[nH]nc(-c4nc5c(-c6cccc(F)c6)cncc5[nH]4)c3n2)c1")
43
>>> experimental_result("CCCCC(=O)Nc1cncc(-c2ccc3[nH]nc(-c4nc5c(-c6ccccn6)cncc5[nH]4)c3n2)c1")
1

----------
- System: IL-6 in THP-1 cells
- method_summary: Inhibition of IL-6 in LPS-stimulated THP-1 human monocyte cells (HTRF)
- Assay type: cell-based
- condition_summary: LPS, IL-6 HTRF, at 10 μM, read-out: percent inhibition in brackets (given for EC50 >10 μM)
Label rule, in plain words: inhibition at 10 µM of 20% and up is yes (1), under 20% is no (0).

>>> category_label("Cn1cc(-c2ccc3[nH]nc(-c4nc5c(-c6cc(F)cc(CNS(C)(=O)=O)c6)cncc5[nH]4)c3n2)cn1")
"yes (1)"
>>> category_label("COc1cccc(-c2cncc3[nH]c(-c4n[nH]c5ccc(-c6cn[nH]c6)nc45)nc23)c1")
"no (0)"
>>> category_label("c1cc(-c2ccc3[nH]nc(-c4nc5c(-c6ccncc6)cncc5[nH]4)c3n2)ccn1")
"yes (1)"
>>> category_label("Cc1ccncc1-c1ccc2[nH]nc(-c3nc4c(-c5ccsc5)cncc4[nH]3)c2n1")
"no (0)"
>>> category_label("c1cc(-c2cncc3[nH]c(-c4n[nH]c5ccc(-c6cncc(OC7CCNCC7)c6)nc45)nc23)ccn1")
"yes (1)"
